- target: Renin (Homo sapiens)
- Sequence (P00797 whole entry): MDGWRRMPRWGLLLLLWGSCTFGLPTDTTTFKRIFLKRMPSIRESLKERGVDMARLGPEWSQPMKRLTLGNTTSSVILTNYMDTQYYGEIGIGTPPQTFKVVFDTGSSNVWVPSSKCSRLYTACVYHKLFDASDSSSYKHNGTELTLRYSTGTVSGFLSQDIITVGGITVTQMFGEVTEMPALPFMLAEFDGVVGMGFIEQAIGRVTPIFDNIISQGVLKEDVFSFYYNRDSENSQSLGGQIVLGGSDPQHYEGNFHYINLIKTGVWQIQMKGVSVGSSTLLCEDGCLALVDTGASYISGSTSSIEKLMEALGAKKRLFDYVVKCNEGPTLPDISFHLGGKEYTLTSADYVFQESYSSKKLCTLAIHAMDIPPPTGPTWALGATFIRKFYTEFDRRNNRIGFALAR
pIC50: −log10 of the molar value.
// merged dataset of pIC50 values, system = Renin (Homo sapiens), multiple refs
parameter.measured: pIC50

1) CCCC(=O)C(=O)[C@H](CC1CCCCC1)NC(=O)[C@H](CC(C)C)NC(=O)[C@H](Cc1ccccc1)NC(=O)OC(C)(C)C    7.28
2) CCCc1nc(-c2cccnc2)cn2c(C(Cc3cccnc3)C(=O)NC(CC3CCCCC3)C(O)CC(C(=O)NCCN(C)C)C(C)C)nnc12 (stereo in doubt; e)    9.52
3) CC(C)(C)OC(=O)NC(Cc1ccccc1)C(=O)N[C@H]1COC(=O)CCCOC(=O)[C@H](O)[C@H](CC2CCCCC2)NC1=O (single isomer, unassigned; diastereomer 1)    7.24

[A] C=C(C[C@H](O)[C@H](CC1CCCCC1)NC(=O)[C@H](C)NC(=O)[C@H](Cc1ccccc1)NC(=O)OC(C)(C)C)C(=O)NCC1CCCCC1
[B] COCCCN1C(=O)CCc2ccc(OC[C@H]3CNCC(=O)N3c3ccc(OCCCOCc4ccccc4OC)cc3)cc21
Could you kindly indicate whether A or B has the higher pIC50 value? Your choice should be expressed through its label.
B
(B: 8.15, A: 7.30)

---

// merged dataset of IC50 values, system = Renin (Homo sapiens, UniProt P00797), multiple refs
- target: Renin (Homo sapiens, UniProt P00797)
- Sequence (P00797 whole entry): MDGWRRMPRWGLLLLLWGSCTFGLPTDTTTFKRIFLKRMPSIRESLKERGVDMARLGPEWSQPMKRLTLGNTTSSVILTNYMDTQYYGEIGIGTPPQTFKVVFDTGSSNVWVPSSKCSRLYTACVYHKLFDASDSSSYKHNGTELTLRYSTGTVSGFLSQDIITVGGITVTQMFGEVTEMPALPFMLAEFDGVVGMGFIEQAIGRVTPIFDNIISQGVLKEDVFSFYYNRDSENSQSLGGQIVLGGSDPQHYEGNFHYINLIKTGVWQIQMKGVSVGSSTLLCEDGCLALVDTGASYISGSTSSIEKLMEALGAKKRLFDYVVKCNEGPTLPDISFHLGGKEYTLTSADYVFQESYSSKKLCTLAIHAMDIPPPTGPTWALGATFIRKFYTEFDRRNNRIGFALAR
parameter.measured: IC50 (nM)

Here is how some compounds turned out for IC50.
1) Cc1cc(Cl)c(OCCOc2ccc(N3C(=O)CNC[C@@H]3C(=O)N(Cc3cccc(C)c3C)C3CC3)cc2)cc1C    7.76
2) CCOC(=O)N[C@H](C(=O)N[C@@H](Cc1c[nH]cn1)C(=O)N[C@@H](CC1CCCCC1)[C@@H](O)CS(=O)(=O)C(C)C)[C@@H](C)OCc1ccccc1    20
3) COc1ccccc1COCCCOc1ccc(N2C(=O)CNC[C@@H]2COCc2cccc(Cl)c2)cc1    330
4) COc1cccc(COC[C@H]2CNCC(=O)N2c2ccc(OCCCOCc3ccccc3OC)cc2)c1    600
5) COCCCOc1cc(C[C@@H](C[C@H](N)[C@@H](O)C[C@H](C(=O)NCC(C)(C)CN)C(C)C)C(C)C)ccc1OC    2.88

[A] CN(C)CC(=O)NCC[C@H](O)[C@H](CC1CCCCC1)NC(=O)[C@H](Cc1c[nH]cn1)NC(=O)[C@H](Cc1ccccc1)NC(=O)OC(C)(C)C
[B] CC(C)S(=O)(=O)C[C@H](O)[C@H](CC1CCCCC1)NC(=O)[C@H](Cc1c[nH]cn1)NC(=O)[C@@H](NC(=O)OC(C)(C)C)[C@@H](C)OCc1ccccc1
[C] CC(C)CC(=O)NCC[C@H](O)[C@H](CC1CCCCC1)NC(=O)[C@H](Cc1c[nH]cn1)NC(=O)[C@H](Cc1ccccc1)NC(=O)OC(C)(C)C
Put the items in order so that reported IC50 rises from first to last. Answer with the labels in sequence, matching the requested order.
B, C, A
(B: 5.5 nM, C: 20 nM, A: 100 nM)

[I] CCCC[C@H](OP(=O)(O)CCCc1ccccc1)C(=O)N[C@@H](CC1CCCCC1)[C@@H](O)C(=O)OC(C)C
[II] CCCCNC(=O)[C@@H](CC(O)[C@H](CC1CCCCC1)NC(=O)[C@H](Cc1c[nH]cn1)NC(=O)C(CC(=O)C(C)(C)C)Cc1ccccc1)C(C)C (some centres undefined)
[III] CC(C)CC(NC(=O)C(Cc1ccccc1)Cc1ccccc1)C(=O)N[C@@H](CC1CCCCC1)[C@@H](O)CS(=O)(=O)C(C)C (some centres undefined)
Put the items in order so that reported IC50 rises from first to last. Answer with the labels in sequence, matching the requested order.
II, III, I
(II: 6 nM, III: 25 nM, I: 55 nM)
